- Measurement Target: Dual specificity protein kinase CLK3 (Homo sapiens) (UniProt P49761)
- Sequence (P49761 whole entry, looked up): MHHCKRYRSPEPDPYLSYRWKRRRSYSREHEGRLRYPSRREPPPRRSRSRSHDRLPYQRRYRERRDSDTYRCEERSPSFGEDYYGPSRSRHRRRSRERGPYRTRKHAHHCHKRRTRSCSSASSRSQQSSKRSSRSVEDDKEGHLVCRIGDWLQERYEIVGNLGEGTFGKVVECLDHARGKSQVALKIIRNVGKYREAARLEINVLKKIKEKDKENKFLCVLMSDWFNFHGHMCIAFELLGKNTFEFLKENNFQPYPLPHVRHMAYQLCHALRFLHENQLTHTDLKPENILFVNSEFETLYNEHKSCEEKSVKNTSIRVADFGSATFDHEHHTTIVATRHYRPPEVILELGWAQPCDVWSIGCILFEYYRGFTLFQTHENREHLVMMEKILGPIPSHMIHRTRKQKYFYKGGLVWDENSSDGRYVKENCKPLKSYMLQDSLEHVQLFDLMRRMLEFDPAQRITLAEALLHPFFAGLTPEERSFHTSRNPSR
- Measurement Conditions: at 0.1 µM
- Description: GSK_PKIS: CLK3 mean inhibition at 0.1 uM [Nanosyn]
In this section we review reported inhibition values for a set of compounds.
Your answer is read as %, so omit the unit and give the number.

Use the examples below as a reference point.
{"columns": ["Molecular String", "inhibition / %"],
 "data": [
  ["O=C(Nc1ccc(Oc2ccc3[nH]c(NC(=O)c4ccco4)nc3c2)cc1)Nc1cc(C(F)(F)F)ccc1F", -3.23],
  ["CN1CCN(C(=O)c2ccc(NC(=O)Nc3ccc(N(C)c4ccnc(Nc5ccc(CS(C)(=O)=O)cc5)n4)cc3)cc2)CC1", 0.18],
  ["C[C@@H](Oc1cc(-n2cnc3ccc(OCC4CCN(C)CC4)cc32)sc1C(N)=O)c1ccccc1C(F)(F)F", -0.19],
  ["Cc1nc(-c2ccccc2)n2nc(NCCCN3CCOCC3)ncc12", 0.04],
  ["Cc1ccc(Nc2ccnc(Nc3cccc(C(N)=O)c3)n2)cc1O", -0.76]
]}

Now let's try a different one.
Enquiry: Data request, read-out inhibition, for COC(=O)c1cncc(/C=C/c2c(C)cc(O)cc2C)c1
Return: 2.11

###

- Measurement Target: Casein kinase I isoform gamma-2 (Homo sapiens) (UniProt P78368);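 further: values are mean inhibition figures reported as part of the GSK PKIS dataset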
- Sequence (P78368 whole entry, looked up, canonical isoform): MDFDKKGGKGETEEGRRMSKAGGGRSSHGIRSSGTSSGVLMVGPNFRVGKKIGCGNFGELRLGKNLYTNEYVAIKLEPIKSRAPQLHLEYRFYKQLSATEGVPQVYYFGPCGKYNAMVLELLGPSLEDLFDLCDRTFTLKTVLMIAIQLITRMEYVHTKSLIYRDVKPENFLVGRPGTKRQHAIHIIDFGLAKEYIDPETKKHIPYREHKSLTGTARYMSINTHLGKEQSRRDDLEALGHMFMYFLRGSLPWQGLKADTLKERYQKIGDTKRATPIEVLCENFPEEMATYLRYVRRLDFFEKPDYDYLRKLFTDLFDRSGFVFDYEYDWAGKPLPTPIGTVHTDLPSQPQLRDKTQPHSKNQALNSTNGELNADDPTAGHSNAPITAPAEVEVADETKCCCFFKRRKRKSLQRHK
- Measurement Conditions: at 0.1 µM
In this section we review reported inhibition values for a set of compounds.
Your answer is read as %, so omit the unit and give the number.

{"columns": ["Molecular String", "inhibition (%)"],
 "data": [
  ["ON=C1CCc2cc(-c3nc(C4CCNCC4)[nH]c3-c3ccncc3)ccc21", 1.32],
  ["CN(C)c1cc2c(Nc3ccc4c(cnn4Cc4ccccc4)c3)ncnc2cn1", 2.05],
  ["COc1ccc(-c2nn3ncccc3c2-c2ccnc(Nc3cccc(C(F)(F)F)c3)n2)cc1", 2.72],
  ["C[C@@H](Oc1cc(-n2cnc3ccc(OCC4CCN(C)CC4)cc32)sc1C(N)=O)c1ccccc1C(F)(F)F", -1.74],
  ["N#Cc1c(NC(=O)c2ccccc2F)sc2c1CCCC2", -1.34],
  ["COc1cccc(-n2ncc3c(N/N=C/c4ccc(C)cc4)ncnc32)c1", 6.88],
  ["CS(=O)(=O)Nc1cccc(-c2ccc3c(NC(=O)C4CC4)n[nH]c3c2)c1", -0.83],
  ["NC(=O)c1sc(-n2cnc3ccccc32)cc1OCc1ccccc1Br", 3.34],
  ["Cc1cc(Cl)cc2c1NC(=O)C2=NNc1ccc(S(N)(=O)=O)cc1", 1.66],
  ["Nc1nccc(C#Cc2cncnc2Nc2ccc(OCc3cccc(F)c3)c(Cl)c2)n1", 2.25]
]}

Enquiry: Data request, read-out inhibition, for Nc1nccc(-c2c(-c3ccc(F)cc3)nn3cc(C(F)(F)F)ccc23)n1
Return: 0.3

Enquiry: Data request, read-out inhibition, for Cc1ccc(O)cc1Nc1ccnc2ccc(S(C)(=O)=O)cc12
Return: 4.13

Enquiry: Data request, read-out inhibition, for COc1cccc(-n2nc(C)c3c(N/N=C(\C)c4ccncc4)ncnc32)c1
Return: 0.14

Enquiry: Data request, read-out inhibition, for O=C(Nc1ccc(Oc2ccc3[nH]c(NC(=O)c4ccco4)nc3c2)cc1)Nc1cc(C(F)(F)F)ccc1F
Return: -4.05

Enquiry: Data request, read-out inhibition, for NS(=O)(=O)c1ccc(Nc2cc(-c3cccc(O)c3)n[nH]2)cc1
Return: 3.99

###

In this section we review reported inhibition values for a set of compounds.
- Measurement Target: Testis-specific serine/threonine-protein kinase 2 (Homo sapiens) (UniProt Q96PF2);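 further: each value is the mean percent inhibition of TSSK2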
- Sequence (Q96PF2 whole entry): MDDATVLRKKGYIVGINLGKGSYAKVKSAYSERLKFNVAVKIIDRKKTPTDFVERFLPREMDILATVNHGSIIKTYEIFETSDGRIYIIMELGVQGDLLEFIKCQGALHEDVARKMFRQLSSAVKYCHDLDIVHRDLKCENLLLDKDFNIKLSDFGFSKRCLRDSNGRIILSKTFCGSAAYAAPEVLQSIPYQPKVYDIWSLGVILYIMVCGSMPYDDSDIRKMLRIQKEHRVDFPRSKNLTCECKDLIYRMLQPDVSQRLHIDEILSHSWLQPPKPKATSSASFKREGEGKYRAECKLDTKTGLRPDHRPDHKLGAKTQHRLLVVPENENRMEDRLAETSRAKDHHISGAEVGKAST
- Measurement Conditions: at 1 µM
Your answer is read as %, so omit the unit and give the number.

Use the examples below as a reference point.
{"columns": ["Compound", "Unit Descriptor", "inhibition"],
 "data": [
  ["Nc1ccc(C#Cc2cncnc2Nc2ccc(OCc3cccc(F)c3)c(Cl)c2)cc1", "%", 0.95],
  ["Cc1cc(Cl)cc2c1NC(=O)C2=NNc1ccc(S(N)(=O)=O)cc1", "%", 5.17],
  ["Cc1ccc(NC(=O)CC2CC2)cc1-c1ccc(C(=O)NCC2CC2)cc1", "%", 1.29],
  ["c1ccc(Nc2ncc(-c3ccccc3)o2)cc1", "%", 3.66],
  ["O=C1Nc2ccccc2/C1=C/Nc1ccc2[nH]c(=O)[nH]c2c1", "%", 4.56],
  ["O=S(=O)(CCOCc1ccc(-c2ccc3ncnc(Nc4ccc(OCc5cccc(F)c5)c(Cl)c4)c3c2)o1)c1ccccc1", "%", 1.88],
  ["CN1CCN(C(=O)c2ccc(NC(=O)Nc3ccc(N(C)c4ccnc(Nc5ccc(CS(C)(=O)=O)cc5)n4)cc3)cc2)CC1", "%", 0.35],
  ["CCOc1nccc2c1nc(-c1nonc1N)n2CC", "%", 4.45],
  ["CCCN1CCCC(c2ccc(Nc3nc(Nc4cc(F)ccc4C(N)=O)c4cc[nH]c4n3)c(OC)c2)C1 (stereo unspecified)", "%", 86],
  ["ON=C1CCc2cc(-c3nc(C4CCNCC4)[nH]c3-c3ccncc3)ccc21", "%", -0.97]
]}

Enquiry: Query inhibition on Testis-specific serine/threonine-protein kinase 2 (Homo sapiens) (UniProt Q96PF2) for N#Cc1cccc(Nc2nccc(-c3cnn4ncccc34)n2)c1
Return: 2.95

Enquiry: Query inhibition on Testis-specific serine/threonine-protein kinase 2 (Homo sapiens) (UniProt Q96PF2) for COc1cc2ncnc(Nc3ccc(C)c(O)c3)c2cc1OC
Return: 2.03

Enquiry: Query inhibition on Testis-specific serine/threonine-protein kinase 2 (Homo sapiens) (UniProt Q96PF2) for COc1cccc(-n2ncc3c(N/N=C/c4ccc(C)cc4)ncnc32)c1
Return: 3.89

Enquiry: Query inhibition on Testis-specific serine/threonine-protein kinase 2 (Homo sapiens) (UniProt Q96PF2) for Cc1ccc(Nc2ccnc(Nc3cccc(C(N)=O)c3)n2)cc1O
Return: 1.65

Enquiry: Query inhibition on Testis-specific serine/threonine-protein kinase 2 (Homo sapiens) (UniProt Q96PF2) for NS(=O)(=O)c1ccc(-c2cc3ccncc3cc2OCc2ccccc2)cc1
Return: 2.52

Enquiry: Query inhibition on Testis-specific serine/threonine-protein kinase 2 (Homo sapiens) (UniProt Q96PF2) for Cc1cc(-c2ccccn2)cc(C)c1/C=C/c1cncc(-c2nn[nH]n2)c1
Return: 2.37

Enquiry: Query inhibition on Testis-specific serine/threonine-protein kinase 2 (Homo sapiens) (UniProt Q96PF2) for O=C1Nc2ccc(-c3cccnc3)cc2C1=Cc1cc(Br)c(O)c(Br)c1
Return: -0.14

Enquiry: Query inhibition on Testis-specific serine/threonine-protein kinase 2 (Homo sapiens) (UniProt Q96PF2) for Nc1nccc(C#Cc2cncnc2Nc2ccc(OCc3cccc(F)c3)c(Cl)c2)n1
Return: -1.18

Enquiry: Query inhibition on Testis-specific serine/threonine-protein kinase 2 (Homo sapiens) (UniProt Q96PF2) for COc1cc2ncn(-c3cc(OCc4ccccc4S(C)(=O)=O)c(C#N)s3)c2cc1OC
Return: 4.54

###

- Test system: Tyrosine-protein kinase ABL1 (Homo sapiens), P00519 [T315I]
- Measurement Conditions: at 0.1 µM
Measure Name: inhibition (%)
Your answer is read as %, so omit the unit and give the number.

Use the examples below as a reference point.
{"columns": ["Compound", "inhibition [%]"],
 "data": [
  ["COc1cc2ncn(-c3cc(OCc4ccccc4S(C)(=O)=O)c(C#N)s3)c2cc1OC", 6.41],
  ["CC(C)c1ccc2c(c1)NC(=O)/C2=N/Nc1ccc(S(N)(=O)=O)cc1", 1.24],
  ["ON=C1CCc2cc(-c3nc(C4CCNCC4)[nH]c3-c3ccncc3)ccc21", 1.29]
]}

Now let's try a different one.
Enquiry: Data request, read-out inhibition, for Cc1ccc2c(-c3ccnc(Nc4ccc5c(c4)OCCO5)n3)c(-c3ccc(C(F)(F)F)cc3)nn2n1
Return: 0.69

###

- System: Mast/stem cell growth factor receptor Kit (Homo sapiens), P10721 [V560G]
- Sequence (P10721 whole entry V560G): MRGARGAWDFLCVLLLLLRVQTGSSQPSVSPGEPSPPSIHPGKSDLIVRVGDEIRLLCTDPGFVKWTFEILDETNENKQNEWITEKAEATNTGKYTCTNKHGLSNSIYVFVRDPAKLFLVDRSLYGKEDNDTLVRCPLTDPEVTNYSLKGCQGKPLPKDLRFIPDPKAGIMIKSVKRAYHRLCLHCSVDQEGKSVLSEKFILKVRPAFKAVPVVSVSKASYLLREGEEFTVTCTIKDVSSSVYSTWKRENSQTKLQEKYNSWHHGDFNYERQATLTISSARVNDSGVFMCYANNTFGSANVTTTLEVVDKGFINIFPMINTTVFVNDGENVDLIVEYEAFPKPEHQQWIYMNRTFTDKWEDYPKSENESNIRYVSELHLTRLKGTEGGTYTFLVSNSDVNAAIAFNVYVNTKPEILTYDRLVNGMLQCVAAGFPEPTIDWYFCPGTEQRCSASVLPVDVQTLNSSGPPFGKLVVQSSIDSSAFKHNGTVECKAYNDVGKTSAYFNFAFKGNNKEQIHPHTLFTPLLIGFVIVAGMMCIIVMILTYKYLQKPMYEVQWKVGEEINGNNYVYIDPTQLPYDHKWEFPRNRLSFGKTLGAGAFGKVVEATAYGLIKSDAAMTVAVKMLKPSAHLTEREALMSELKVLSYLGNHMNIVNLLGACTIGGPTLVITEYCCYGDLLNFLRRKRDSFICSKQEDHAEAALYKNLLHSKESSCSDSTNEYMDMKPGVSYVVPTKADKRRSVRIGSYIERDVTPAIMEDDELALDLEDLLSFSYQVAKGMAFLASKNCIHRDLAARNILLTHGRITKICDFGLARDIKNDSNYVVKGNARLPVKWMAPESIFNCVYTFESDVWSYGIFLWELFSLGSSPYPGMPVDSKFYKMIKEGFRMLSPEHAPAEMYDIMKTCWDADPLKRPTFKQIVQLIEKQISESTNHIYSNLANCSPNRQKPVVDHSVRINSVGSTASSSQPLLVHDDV
- Measurement Conditions: at 1 µM
Measure Name: inhibition (%)
Your answer is read as %, so omit the unit and give the number.

{"columns": ["Molecular String", "inhibition / %"],
 "data": [
  ["CC(C)c1ccc2c(c1)NC(=O)/C2=N/Nc1ccc(S(N)(=O)=O)cc1", 19.4]
]}

Enquiry: Data request, read-out inhibition, for NS(=O)(=O)c1cccc(Nc2cc(-c3ccc(F)cc3)n[nH]2)c1
Return: 38

Enquiry: Data request, read-out inhibition, for CCn1c(-c2nonc2N)nc2ccc(F)cc21
Return: -0.91

Enquiry: Data request, read-out inhibition, for OCc1ccc(-c2nc(-c3ccccn3)c(-c3ccc4c(c3)OCO4)[nH]2)cc1
Return: 2.83

Enquiry: Data request, read-out inhibition, for C[C@@H](Oc1cc(-n2cnc3ccc(OC[C@@H](O)CO)cc32)sc1C(N)=O)c1ccccc1Cl
Return: 2.13

Enquiry: Data request, read-out inhibition, for CS(=O)(=O)CCNCc1nc(-c2ccc3ncnc(Nc4ccc(OCc5cccc(C(F)(F)F)c5)cc4)c3c2)cs1
Return: 6.02

Enquiry: Data request, read-out inhibition, for Oc1cccc(-c2nc(-c3ccccc3)[nH]c2-c2ccncc2)c1
Return: 3.96

Enquiry: Data request, read-out inhibition, for Cc1ccc(Nc2ccnc(Nc3cccc(C(N)=O)c3)n2)cc1O
Return: 21.1

Enquiry: Data request, read-out inhibition, for COc1cc(Nc2nccc(-c3cnn4ncccc34)n2)cc(OC)c1
Return: 92.5

Enquiry: Data request, read-out inhibition, for COc1cccc(-n2nc(C)c3c(N/N=C(\C)c4ccncc4)ncnc32)c1
Return: 0.19

Enquiry: Data request, read-out inhibition, for CCOc1nccc2c1nc(-c1nonc1N)n2CC
Return: 7.59

Enquiry: Data request, read-out inhibition, for Nc1ccc(C#Cc2cncnc2Nc2ccc(OCc3cccc(F)c3)c(Cl)c2)cc1
Return: -1.6

Enquiry: Data request, read-out inhibition, for CCS(=O)(=O)c1ccc(OC)c(Nc2nccc(N(C)c3ccc4c(C)n[nH]c4c3)n2)c1
Return: 11.8

Enquiry: Data request, read-out inhibition, for Nc1nccc(-c2c(-c3ccc(F)cc3)ncn2CCCN2CCOCC2)n1
Return: 1.5

Enquiry: Data request, read-out inhibition, for CS(=O)(=O)Nc1cccc(-c2ccc3c(NC(=O)C4CC4)n[nH]c3c2)c1
Return: 0.6

Enquiry: Data request, read-out inhibition, for COC(=O)Nc1nc2cc(Oc3ccc(NC(=O)Nc4cccc(Br)c4)cc3)ccc2[nH]1
Return: 86.4

Enquiry: Data request, read-out inhibition, for CN1CCN(C(=O)c2ccc(NC(=O)Nc3ccc(N(C)c4ccnc(Nc5ccc(CS(C)(=O)=O)cc5)n4)cc3)cc2)CC1
Return: 93.2

Enquiry: Data request, read-out inhibition, for C[C@@H](Oc1cc(-n2cnc3ccc(OCC4CCN(C)CC4)cc32)sc1C(N)=O)c1ccccc1C(F)(F)F
Return: 4.85

Enquiry: Data request, read-out inhibition, for Cc1ccc2c(-c3ccnc(Nc4ccc5c(c4)OCCO5)n3)c(-c3ccc(C(F)(F)F)cc3)nn2n1
Return: 0.88
